These measurements were taken from patent US10517952B2.

Equilibrium Swelling Ratio values, listed per item
assay: Equilibrium swelling, gel fraction and Mc (Flory-Rehner) of PEG-OND hydrogels; format: physicochemical; conditions: mass post-swelling/mass pre-swelling; deionized water, 4° C., 24 hours; n = 3 gels

Reference set (5 entries):
• COC(=O)C1=C(C(=O)OC)C2(CNC(=O)CCCC(=O)NCC34C=CC(O3)C(C(=O)OC)=C4C(=O)OC)C=CC1O2 [Linker 7a] = 1.7
• COC(=O)C1=C(C(=O)OC)C2(CNC(=O)CCOCC(COCCC(=O)NCC34C=CC(O3)C(C(=O)OC)=C4C(=O)OC)(COCCC(=O)NCC34C=CC(O3)C(C(=O)OC)=C4C(=O)OC)COCCC(=O)NCC34C=CC(O3)C(C(=O)OC)=C4C(=O)OC)C=CC1O2 (stereo not drawn) [Linker 12] = 1.44 ± 0.08
• CCOC(=O)C1=C(C(F)(F)F)C2C=CC1(CNC(=O)CCCC(=O)NCC13C=CC(O1)C(C(=O)OC)=C3C(=O)OC)O2 (stereo not drawn) [Linker 10] = 1.87 ± 0.12
• COC(=O)C1=C(C(=O)OC)C2(CNC(=O)CCCC(=O)NCC34OC(C(C(=O)OC)=C3C(=O)OC)C3OC34)OC1C1OC12 (stereo not drawn) [Linker 8] = 1.60 ± 0.10
• COC(=O)C1=C(C(=O)OC)C2(CNC(=O)CC(O)(CC(=O)NCC34C=CC(O3)C(C(=O)OC)=C4C(=O)OC)C(=O)NCC34C=CC(O3)C(C(=O)OC)=C4C(=O)OC)C=CC1O2 (stereo not drawn) [Linker 11] = 1.54 ± 0.07

Here is another molecule to look at.
Give the value of Equilibrium Swelling Ratio reported for the following: CCOC(=O)C1=C(C(F)(F)F)C2C=CC1(CNC(=O)CCCC(=O)NCC13C=CC(O1)C(C(F)(F)F)=C3C(=O)OCC)O2 [Linker 7b] 1.40 ± 0.02

---

test: Equilibrium swelling, gel fraction and Mc (Flory-Rehner) of PEG-OND hydrogels; format: physicochemical; conditions: calculated with the Flory-Rehner equation from swelling results
measured.property: Mc (apparent molecular weight between elastic crosslinks) (g/mol)
Form entry: value (g/mol) — number only.

Reference set (5 entries):
* CCOC(=O)C1=C(C(F)(F)F)C2C=CC1(CNC(=O)CCCC(=O)NCC13C=CC(O1)C(C(F)(F)F)=C3C(=O)OCC)O2 | 3698
* COC(=O)C1=C(C(=O)OC)C2(CNC(=O)CCCC(=O)NCC34OC(C(C(=O)OC)=C3C(=O)OC)C3OC34)OC1C1OC12 (stereo not drawn) | 3900
* COC(=O)C1=C(C(=O)OC)C2(CNC(=O)CC(O)(CC(=O)NCC34C=CC(O3)C(C(=O)OC)=C4C(=O)OC)C(=O)NCC34C=CC(O3)C(C(=O)OC)=C4C(=O)OC)C=CC1O2 (stereo not drawn) | 3846
* CCOC(=O)C1=C(C(F)(F)F)C2C=CC1(CNC(=O)CCCC(=O)NCC13C=CC(O1)C(C(=O)OC)=C3C(=O)OC)O2 (stereo not drawn) | 4112
* COC(=O)C1=C(C(=O)OC)C2(CNC(=O)CCCC(=O)NCC34C=CC(O3)C(C(=O)OC)=C4C(=O)OC)C=CC1O2 | 4080

Here is another molecule to look at.
Give the value of Mc (apparent molecular weight between elastic crosslinks) reported for the following: COC(=O)C1=C(C(=O)OC)C2(CNC(=O)CCOCC(COCCC(=O)NCC34C=CC(O3)C(C(=O)OC)=C4C(=O)OC)(COCCC(=O)NCC34C=CC(O3)C(C(=O)OC)=C4C(=O)OC)COCCC(=O)NCC34C=CC(O3)C(C(=O)OC)=C4C(=O)OC)C=CC1O2 (stereo not drawn) 3740

---

Calculated mesh size values, listed per item
experiment: Calculation of hydrogel mesh size from equilibrium swelling data; type: physicochemical; conditions: equilibrium-swollen gels
Write down the value, and be sure its unit follows.

Reference set (2 entries):
- COC(=O)C1=C(C(=O)OC)C2(CNC(=O)CC(O)(CC(=O)NCC34C=CC(O3)C(C(=O)OC)=C4C(=O)OC)C(=O)NCC34C=CC(O3)C(C(=O)OC)=C4C(=O)OC)C=CC1O2 (stereo not drawn): 13.7 ± 1.3 nm
- COC(=O)C1=C(C(=O)OC)C2(CNC(=O)CCCC(=O)NCC34C=CC(O3)C(C(=O)OC)=C4C(=O)OC)C=CC1O2: 15.2 ± 0.9 nm

Give the value of Calculated mesh size reported for the following: CCOC(=O)C1=C(C(F)(F)F)C2C=CC1(CNC(=O)CCCC(=O)NCC13C=CC(O1)C(C(=O)OC)=C3C(=O)OC)O2 (stereo not drawn) 15.1 ± 1.3 nm
